# measurement.notes: chemical recovery from spiked human plasma; higher = better extraction
# condition.notes: pooled human plasma; extraction method: PES+SPE (3 d PDMS equilibration then HLB SPE)
measure: chemical recovery (%)

INSERT INTO assay_data (compound, recorded_result) VALUES
  ('CCCCNS(=O)(=O)c1ccccc1 [N-Butylbenzenesulfonamide]', 45.4),
  ('O=P(c1ccccc1)(c1ccccc1)c1ccccc1 [Triphenylphosphine oxide]', 58.6),
  ('Oc1c(Cl)cc(-c2ccc(Cl)cc2)cc1Cl [4-Hydroxy-3,4'',5-trichlorobiphenyl]', 46.3),
  ('Fc1ccc([C@@H]2CCNC[C@H]2COc2ccc3c(c2)OCO3)cc1', 3.9),
  ('ClC(Cl)=C(c1ccc(Cl)cc1)c1ccc(Cl)cc1', 49.3);

* * *

# measurement.notes: chemical recovery by SPE of plasma after PDMS sampling; higher = better extraction
# condition.notes: pooled human plasma; extraction method: HLB SPE of plasma after PES; equilibration time (d): 3
measure: chemical recovery by SPE of plasma (%)

INSERT INTO measurements (compound, measure, units, recorded_result) VALUES
  ('Cc1c(C(C)C)c(=O)n(-c2ccccc2)n1C', 'chemical recovery by SPE of plasma', '%', 3.89),
  ('CCCCCCCCCCCCCCN(C)C', 'chemical recovery by SPE of plasma', '%', 0.0666),
  ('CN/C(=N\[N+](=O)[O-])NCc1cnc(Cl)s1', 'chemical recovery by SPE of plasma', '%', 62.2),
  ('Brc1ccc(Oc2c(Br)cc(Br)cc2Br)c(Br)c1', 'chemical recovery by SPE of plasma', '%', 1.42),
  ('ClC=C(c1ccc(Cl)cc1)c1ccc(Cl)cc1', 'chemical recovery by SPE of plasma', '%', 12),
  ('CC(CCc1ccccc1)NCC(O)c1ccc(O)c(C(N)=O)c1 (stereo not drawn)', 'chemical recovery by SPE of plasma', '%', 50.6),
  ('CCNc1nc(Cl)nc(NCC)n1', 'chemical recovery by SPE of plasma', '%', 7.56),
  ('CC[C@H]1OC(=O)[C@H](C)[C@@H](O[C@H]2C[C@@](C)(OC)[C@@H](O)[C@H](C)O2)[C@H](C)[C@@H](O[C@@H]2O[C@H](C)C[C@H](N(C)C)[C@H]2O)[C@](C)(OC)C[C@@H](C)C(=O)[C@H](C)[C@@H](O)[C@]1(C)O', 'chemical recovery by SPE of plasma', '%', 24.4),
  ('C=CCC1=C(C)C(OC(=O)C2C(C=C(C)C)C2(C)C)CC1=O (stereo not drawn)', 'chemical recovery by SPE of plasma', '%', 0.042),
  ('CS(=O)(=O)c1ccccc1', 'chemical recovery by SPE of plasma', '%', 104),
  ('c1ccc2c(c1)-c1ccc3ccc4cccc5cc-2c1c3c45', 'chemical recovery by SPE of plasma', '%', 1.3),
  ('CC(Cc1ccc(C(C)(C)C)cc1)CN1CCCCC1 (stereo not drawn)', 'chemical recovery by SPE of plasma', '%', 0.0736),
  ('Cc1cccc(C)c1N(Cn1cccn1)C(=O)C[S+]([O-])CC(=O)O (stereo not drawn)', 'chemical recovery by SPE of plasma', '%', 57.9);

* * *

# measurement.notes: chemical recovery from spiked human plasma; higher = better extraction
# condition.notes: pooled human plasma; extraction method: SPE only (HLB 96-well)
Some compounds, each annotated with its measured chemical recovery.
measure: chemical recovery (%)

INSERT INTO measurements (compound, recorded_result) VALUES
  ('CC(C)Oc1cccc(NC(=O)c2ccccc2C(F)(F)F)c1', 38.9),
  ('COc1cc([N+](=O)[O-])ccc1O', 39.5),
  ('[O-][n+]1cccc2ccccc21 [Quinoline N-oxide]', 43.8);
